For each of the compounds below, state its Mass of final product obtained from 1 ml mRNA synthesis reaction system.
- measurement target: T7 Enzyme Mix (Escherichia phage T7)
- Sequence (P00573 whole entry): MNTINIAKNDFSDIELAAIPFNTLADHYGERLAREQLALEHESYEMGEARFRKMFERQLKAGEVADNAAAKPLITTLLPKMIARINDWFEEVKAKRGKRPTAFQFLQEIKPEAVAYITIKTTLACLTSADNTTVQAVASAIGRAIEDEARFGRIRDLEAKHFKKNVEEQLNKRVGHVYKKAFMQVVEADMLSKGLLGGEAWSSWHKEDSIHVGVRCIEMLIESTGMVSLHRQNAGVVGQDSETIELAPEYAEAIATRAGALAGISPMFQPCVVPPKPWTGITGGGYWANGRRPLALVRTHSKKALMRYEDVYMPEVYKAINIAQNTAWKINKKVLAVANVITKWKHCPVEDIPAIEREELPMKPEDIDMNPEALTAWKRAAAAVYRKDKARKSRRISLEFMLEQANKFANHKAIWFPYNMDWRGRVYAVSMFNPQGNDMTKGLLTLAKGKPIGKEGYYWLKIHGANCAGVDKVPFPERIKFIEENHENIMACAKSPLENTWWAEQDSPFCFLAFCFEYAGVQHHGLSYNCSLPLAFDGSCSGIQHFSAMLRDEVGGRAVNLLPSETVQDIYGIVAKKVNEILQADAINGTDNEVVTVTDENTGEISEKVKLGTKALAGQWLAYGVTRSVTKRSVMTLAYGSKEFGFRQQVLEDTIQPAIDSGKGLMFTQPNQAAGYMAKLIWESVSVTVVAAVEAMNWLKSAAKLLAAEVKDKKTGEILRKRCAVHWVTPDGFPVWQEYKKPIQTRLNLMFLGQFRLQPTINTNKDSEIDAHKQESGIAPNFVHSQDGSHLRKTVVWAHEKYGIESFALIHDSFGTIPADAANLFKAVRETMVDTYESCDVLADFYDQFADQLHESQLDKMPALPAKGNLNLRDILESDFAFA
- protocol: In vitro transcription mRNA synthesis with cap analog, reaction yield
- Assay type: biochemical
- experimental conditions: per ml transcription reaction system; 37° C. for 6 h; LiCl purification
// return numeric value only (unit: mg, not printed)

In: Any idea what its Mass of final product obtained from 1 ml mRNA synthesis reaction system is? The compound is CO[C@@H]1[C@H](O)[C@@H](COP(=O)(O)O[C@H]2[C@@H](OC)[C@H](n3cnc4c(=O)[nH]c(N)nc43)O[C@@H]2COP(=O)(O)OP(=O)(O)OP(=O)([O-])OC[C@H]2O[C@@H](n3c[n+](C)c4c(=O)[nH]c(N)nc43)[C@H](O)[C@@H]2O)O[C@H]1n1ccc(N)nc1=O [Cap analog 10, m7G(5′)ppp(5′)(2′OMeG)p(2′OMeC)]
Out: 6.0

In: Any idea what its Mass of final product obtained from 1 ml mRNA synthesis reaction system is? The compound is CO[C@@H]1[C@H](O)[C@@H](COP(=O)(O)O[C@H]2[C@@H](OC)[C@H](n3ccc(=O)[nH]c3=O)O[C@@H]2COP(=O)(O)OP(=O)(O)OP(=O)([O-])OC[C@H]2O[C@@H](n3c[n+](C)c4c(=O)[nH]c(N)nc43)[C@H](O)[C@@H]2O)O[C@H]1n1ccc(N)nc1=O [Cap analog 12, m7G(5′)ppp(5′)(2′OMeU)p(2′OMeC)]
Out: 4.9

In: Any idea what its Mass of final product obtained from 1 ml mRNA synthesis reaction system is? The compound is CO[C@@H]1[C@H](O)[C@@H](COP(=O)(O)O[C@H]2[C@@H](OC)[C@H](n3ccc(=O)[nH]c3=O)O[C@@H]2COP(=O)(O)OP(=O)(O)OP(=O)([O-])OC[C@H]2O[C@@H](n3c[n+](C)c4c(=O)[nH]c(N)nc43)[C@H](O)[C@@H]2O)O[C@H]1n1ccc(=O)[nH]c1=O [Cap analog 16, m7G(5′)ppp(5′)(2′OMeU)p(2′OMeU)]
Out: 4.2

In: Any idea what its Mass of final product obtained from 1 ml mRNA synthesis reaction system is? The compound is CO[C@@H]1[C@H](O)[C@@H](COP(=O)(O)O[C@H]2[C@@H](OC)[C@H](n3cnc4c(=O)[nH]c(N)nc43)O[C@@H]2COP(=O)(O)OP(=O)(O)OP(=O)([O-])OC[C@H]2O[C@@H](n3c[n+](C)c4c(=O)[nH]c(N)nc43)[C@H](O)[C@@H]2OC)O[C@H]1n1cnc2c(N)ncnc21 [Cap analog 22, 3-O-Me-m7G(5′)ppp(5′)(2′OMeG)p(2′OMeA)]
Out: 4.6

In: Any idea what its Mass of final product obtained from 1 ml mRNA synthesis reaction system is? The compound is CO[C@@H]1[C@H](O)[C@@H](COP(=O)(O)O[C@H]2[C@@H](OC)[C@H](n3cnc4c(=O)[nH]c(N)nc43)O[C@@H]2COP(=O)(O)OP(=O)(O)OP(=O)([O-])OC[C@H]2O[C@@H](n3c[n+](C)c4c(=O)[nH]c(N)nc43)[C@H](O)[C@@H]2OC)O[C@H]1n1ccc(N)nc1=O [Cap analog 26, 3-O-Me-m7G(5′)ppp(5′)(2′OMeG)p(2′OMeC)]
Out: 4.6

In: Any idea what its Mass of final product obtained from 1 ml mRNA synthesis reaction system is? The compound is CO[C@@H]1[C@H](OP(=O)(O)OC[C@H]2O[C@@H](n3cnc4c(N)ncnc43)[C@H](OC)[C@@H]2O)[C@@H](COP(=O)(O)OP(=O)(O)OP(=O)([O-])OC[C@H]2O[C@@H](n3c[n+](C)c4c(=O)[nH]c(N)nc43)[C@H](O)[C@@H]2O)O[C@H]1n1ccc(N)nc1=O [Cap analog 7, m7G(5′)ppp(5′)(2′OMeC)p(2′OMeA)]
Out: 5.3
